Below are compounds with their IC50 as measured on CDK2 (Homo sapiens).
Value Type: IC50

>>> df
                            smiles_notation  value_type  result_value
0  N#CC1CN(c2cc(NCc3nc4cc(Cl)c(Cl)cc4[nH]3)c3ncc(C(F)(F)F)n3n2)C1        IC50     > 1000 nM
1  FC(F)(F)c1cnc2c(NCc3nc4ccccc4[nH]3)cc(N3CCOCC3)nn12        IC50     > 1000 nM
2  Nc1ncc(-c2cc(NCc3nc4cc(Cl)c(Cl)cc4[nH]3)c3ncc(C(F)(F)F)n3n2)cn1        IC50     > 1000 nM
